# System: ATM protein
# EXPERIMENTAL DETAILS: ATM inhibition assay (immunoprecipitated ATM, GSTp53N66 substrate)
# Format: biochemical, human
# ASSAY SETUP: selectivity ratio from the IC50s for ATM and DNA-PK
# Method: In order to assess the inhibitory action of the compounds against ATM in vitro, the following assay was used to determine IC50 values. ATM protein was immunoprecipitated from HeLa cell nuclear extract using rabbit polyclonal antisera raised to the C-terminal ˜500 amino-acid residues of the human ATM protein. […] Counts per second, following a one second counting time, were recorded for each reaction. The inhibition of ATM activity by compounds was calculated as described above for the DNA-PK assay. […]
TEST READOUT: Δ(DNA-PK/ATM)

// below: answered molecules
O=c1cc(N2CCOCC2)oc2cc(OCc3ccc4ccccc4c3)ccc12 | >222
O=c1cc(-c2cccc(F)c2)oc(N2CCOCC2)c1 | >167

Query: Item O=c1cc(N2CCOCC2)oc2c3c(ccc12)CCCC3 has what recorded Δ(DNA-PK/ATM)?
Result: 90

Query: Item O=C1c2ccccc2C(=O)N1CCCOc1ccc2c(=O)cc(N3CCOCC3)oc2c1 has what recorded Δ(DNA-PK/ATM)?
Result: >200

Query: Item O=c1cc(N2CCOCC2)oc2cc(OCc3ccc(Cl)cc3)ccc12 has what recorded Δ(DNA-PK/ATM)?
Result: >200

Query: Item O=c1cc(-c2ccc(F)cc2)oc(N2CCOCC2)c1 has what recorded Δ(DNA-PK/ATM)?
Result: >400

Query: Item O=c1cc(-c2ccc(Cl)cc2)oc(N2CCOCC2)c1 has what recorded Δ(DNA-PK/ATM)?
Result: >286

Query: Item O=c1cc(N2CCOCC2)nc2c3ccccc3ccn12 has what recorded Δ(DNA-PK/ATM)?
Result: >286

Query: Item O=c1cc(N2CCOCC2)oc2ccc3ccccc3c12 [Compound 310, 2-morpholin-4-yl-benzo[f]chromen-4-one] has what recorded Δ(DNA-PK/ATM)?
Result: >1000
